Here, each record is paired with measured target mRNA inhibition data.
# STUDY_TARGET: KRAS
# CONDITION_LABEL: ASO, A431, 2 µM
After the bases stand the sugars from the 5' end (letter, count) and the backbone: PS all phosphorothioate, else s phosphorothioate and o phosphodiester by linkage. Methylation of C is not given here. e = 2'-O-(2-methoxyethyl) (MOE); k = constrained ethyl (cEt); d = 2'-deoxy (DNA)
Give the value, in units of %, as a plain number.

Some solved entries appear below for comparison.
CHAIN | target mRNA inhibition [%]
CCATTTATGTGACTAG (sugars k3 d9 k3 e1, PS) | 49
AGTGATTAGGTCAAAT (sugars kdddddddddkekeke, PS) | 12
CAAAGTTCACATAAAG (sugars k3 d10 k3, PS) | 21

Entry AAATCTTATGGTTAGG (sugars k3 d10 k3, PS) ; target mRNA inhibition = 34

Cited source for all entries: the OligoGym collection
